Values compiled from PubChem BioAssay AID1159565.

Measured IC50 accompanies every entry in the list below.
system: T. cruzi-infected H9C2 cardiomyocytes, high-content imaging; test: intracellular T. cruzi amastigote inhibition, imaging, H9C2 host cardiomyocytes, host toxicity (AID 1159565); details: measured here: amastigotes per cell;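 also: infected cells incubated 72 h after plating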
The response must be a number in µM with no trailing unit.

O=C(Cn1cnc2c(-c3ccccc3)csc2c1=O)N1CCCCC1	3.2
Cc1cccnc1CN1CCN(CCCOc2ccc(-c3ccc(C(N)=O)cc3)cc2)CC1	0.4
COc1ccc(-c2nc3ccncc3c(=O)n2CCOc2ccccc2)cc1	0.4
O=C(c1ccc(OCCCc2cnc[nH]2)cc1)C1CC1	1.3
O=C(c1cc2cc(Cl)ccc2[nH]1)N1CCCCC1c1cccnc1 (stereo unspecified)	0.13
O=C(COc1nn(-c2ccccc2)c2ncccc12)NCc1ccccc1	32
NC(=O)c1ccc(-c2cccc(OCCN3CCN(C4CCCCC4)CC3)c2)cc1	0.79
Cc1cc(Nc2cc(C3CC3)[nH]n2)nc(N2CCC[C@H]2C(N)=O)n1	0.02
C=CCn1nc([N+](=O)[O-])nc1Oc1ccc(Cl)cc1Cl	0.13

Proceed to the following item.
Request: Data request, read-out IC50, for CC(C)c1cc(Nc2cc(Cc3ccccc3)nc(NC3CCC(O)CC3)n2)n[nH]1 (stereo unspecified)
Result: 0.032

====

Measured IC50 accompanies every entry in the list below.
test system: T. cruzi-infected H9C2 cardiomyocytes, high-content imaging; experiment: intracellular T. cruzi amastigote inhibition, imaging, H9C2 host cardiomyocytes, host toxicity (AID 1159565); conditions: measured here: amastigotes per cell;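 also: infected cells incubated 72 h after plating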
The response must be a number in nM with no trailing unit.

Below, each entry is followed by its recorded IC50 result.
Cc1ccc(Nc2nc(C3CCCN3Cc3ccn[nH]3)cs2)nc1 (stereo not drawn)	2000
Fc1ccccc1N1C[C@H]2CCN(c3cccnc3)C[C@H]2C1	200

Request: Data request, read-out IC50, for O=C(NCCc1csc(-c2ccc(F)cc2)n1)c1cccs1
Result: 250

Request: Let us now turn to Cc1nc(C(=O)Nc2ccc3c(c2)OCO3)nn1-c1ccc(F)cc1
Result: 1000

Request: Let us now turn to O=c1ccc2ccc(F)c3c2n1C[C@H]3CN1CCC(NCc2cc3ccccc3o2)CC1
Result: 130

Request: Let us now turn to O=C(c1cccc(Cl)c1Cl)N1CCn2c1nc(-c1ccncc1)cc2=O
Result: 320

Request: Let us now turn to CN(Cc1nc2ccccc2s1)C(=O)C=Cc1cc2ccccc2o1
Result: 1000

Request: Let us now turn to O=C(Nc1ccc(Br)c(Cl)c1)Nc1ccc2c(c1)OCO2
Result: 2000

Request: Let us now turn to O=C(NCc1ccc(-n2cccc2)cc1)c1nc(Cn2ccc([N+](=O)[O-])n2)no1
Result: 1300

Request: Let us now turn to O=c1[nH]ccc2ccc(-c3ccncc3)cc12
Result: 250

Request: Let us now turn to COc1ccc2nccc(NC(=O)C3(OC)CCN(CC(O)c4ccc5c(c4)OCCO5)CC3)c2n1 (stereo not drawn)
Result: 130

Request: Let us now turn to CN(C)S(=O)(=O)c1cccc(C(=O)Nc2nc(-c3ccccn3)cs2)c1
Result: 1000

Request: Let us now turn to c1ccc(CNc2cccc3ccncc23)cc1
Result: 5000

====

tested on: T. cruzi-infected H9C2 cardiomyocytes, high-content imaging; assay: intracellular T. cruzi amastigote inhibition, imaging, H9C2 host cardiomyocytes, host toxicity (AID 1159565); conditions: measured here: amastigotes per cell;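 also: infected cells incubated 72 h after plating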
Quantity Kind: log10(IC50) (log10 of the value in µM)
Heads up: the numbers are on a log10 scale; they represent IC50 in µM.

Below, each entry is followed by its recorded log10(IC50) result.
CNc1cc(Cn2c(C(=O)c3cc(C)cc(Cl)c3)c(C(C)C)c(=O)[nH]c2=O)ccn1	-1.70
CC(=O)Nc1ccc(CN2CCC(N3CC(c4ccccc4)(c4ccccc4)OCC3=O)CC2)cc1	1.30
O=C(NCC1CCCCC1)c1cc(=O)c2ccccc2o1	-0.30
COc1ccc(S(=O)(=O)Nc2ccc(C(=O)Nc3nc(-c4ccccn4)cs3)cc2)cc1	-0.20
CCCN(Cc1ccc(OC)c(OC)c1)Cc1cc(=O)c2c(C)cc(C)cc2[nH]1	-0.30

Request: For T. cruzi-infected H9C2 cardiomyocytes, high-content imaging, provide log10(IC50) of Cc1cc(N(C)C)nc2ccc(Cc3cnc(N)nc3N)cc12 please.
Result: 0.51

Request: Let us now turn to Cc1cc(Nc2cc(C3CC3)[nH]n2)nc(N2CCCC2)n1
Result: -1.10

Request: Let us now turn to CC(C)(C)Nc1nc(-c2ccccn2)nc2ccccc12
Result: 0.11

Request: Let us now turn to Cc1cn[nH]c1C1CCCN(Cc2nc3ccccc3n2C)C1 (stereo not drawn)
Result: 1.00

Request: Let us now turn to O=c1ccn(-c2ccc([N+](=O)[O-])cc2Cl)c2ccc(F)cc12
Result: 0.11

Request: Let us now turn to CC(C)CC(=O)Nc1cc(C2CC2)nn1-c1nc2c(c(=O)[nH]1)CCCC2
Result: -0.89

Request: Let us now turn to CCN(Cc1ccncc1)Cc1ccc(NC(=O)c2cc(-c3ccc(F)cc3)n[nH]2)cc1
Result: -0.60

Request: Let us now turn to c1ccc(Nc2nc(-c3ccccn3)cc(N3CCOCC3)n2)cc1
Result: 1.40

Request: Let us now turn to O=C(NCCc1ccn(-c2ccccc2)n1)C1CCCCC1
Result: 0.00

Request: Let us now turn to CN(Cc1ccc(C(N)=O)cc1)C(c1ccc(F)cc1)c1cccnc1 (stereo not drawn)
Result: -0.70

Request: Let us now turn to O=C(COc1ncnc2cc([N+](=O)[O-])ccc12)NC(=O)NC1CCCCC1
Result: -0.30

Request: Let us now turn to COc1cc(C(C)C)c(S(C)(=O)=O)cc1C(=O)N1CCN(c2ccccc2Cl)CC1
Result: 0.30

====

system: T. cruzi-infected H9C2 cardiomyocytes, high-content imaging; test: intracellular T. cruzi amastigote inhibition, imaging, H9C2 host cardiomyocytes, host toxicity (AID 1159565); conditions: measured here: amastigotes per cell;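 also: infected cells incubated 72 h after plating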
Quantity Kind: IC50 (µM)
The response must be a number in µM with no trailing unit.

Cc1cc(C)cc(NS(=O)(=O)c2cc(-c3cc(C)[nH]n3)ccc2C)c1	1.3
Cc1ccc2c(c1)SC(C(=O)Nc1n[nH]c(-c3ccccn3)n1)C2 (stereo not given)	6.3
COc1ccc2ncc(F)c(NC(=O)C3(O)CCC(NCc4ccc5c(c4)OCCO5)CC3)c2n1 (stereo not given)	0.16

Request: Data request, read-out IC50, for COc1cccc(C(=O)[C@H]2C[C@@H]2CN(Cc2ccccn2)Cc2ccccn2)c1
Result: 0.79

Request: Let us now turn to CCc1cccc(CC)c1-n1c(SCC(=O)N2CC(=O)Nc3ccccc32)nnc1-c1cccnc1
Result: 25

Request: Let us now turn to CC(C)Nc1nc(Cl)nc2ccccc12
Result: 4

Request: Let us now turn to COc1ncc(-c2ccc3ncnc(N4CCOCC4)c3c2)cc1NS(C)(=O)=O
Result: 2.5

Request: Let us now turn to COc1cc(-c2nc(N3CCOCC3)sc2-c2ccnc(NC3CCOCC3)n2)ccc1Cl
Result: 0.1

Request: Let us now turn to Cc1nn(C)c(Cl)c1CN(Cc1cccnc1)Cc1ccsc1
Result: 0.32

Request: Let us now turn to OC[C@@H](Nc1nccc(-c2c(-c3ccc(F)cc3)ncn2C2CCNCC2)n1)c1ccccc1
Result: 13

====

test system: T. cruzi-infected H9C2 cardiomyocytes, high-content imaging; experiment: intracellular T. cruzi amastigote inhibition, imaging, H9C2 host cardiomyocytes, host toxicity (AID 1159565); conditions: measured here: H9C2 host cell toxicity;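 also: infected cells incubated 72 h after plating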
pIC50: −log10 of the molar value.
Measured pIC50 accompanies every entry in the list below.

CC(=O)NC1(c2ccccc2)CCN(CC(=O)Nc2ccccc2-c2ccccc2)CC1	< 4.30
CCNc1cc(-c2ccccn2)nc(Nc2ccc(OC)cc2)n1	6.49
CC(C)C[C@H](NC(=O)c1ccc(-c2ccccc2)o1)C(=O)NC1(C#N)CC1	< 4.30
Cc1nc(C(=O)Nc2ccc3c(c2)OCO3)nn1-c1ccc(Cl)cc1	< 4.30

Request: Data request, read-out pIC50, for COc1ccc2nc(N(Cc3cccnc3)C(=O)C3CCC3)sc2c1
Result: < 4.30

====

tested on: T. cruzi-infected H9C2 cardiomyocytes, high-content imaging; test: intracellular T. cruzi amastigote inhibition, imaging, H9C2 host cardiomyocytes, host toxicity (AID 1159565); settings: measured here: amastigotes per cell;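 also: infected cells incubated 72 h after plating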
pIC50: −log10 of the molar value.
Label rule, in plain words: pIC50 of 6 and up is t, under 6 is f.

Worked examples follow.
O=C(Nc1nc2ccccc2[nH]1)c1ccc2nc[nH]c2c1	f
CCCc1cc(C(=O)Nc2ncc(-c3cccc(Br)c3)n2C)n[nH]1	f
O=C(CN1CCN(c2ccccn2)CC1)Nc1cc(S(=O)(=O)N2CCCCCC2)ccc1Cl	f
CN(C)CCN(C)Cc1ccc(F)cc1NS(=O)(=O)c1ccc(Cl)c(Cl)c1	f
O=C(NC1CCN(C2Cc3ccc(NS(=O)(=O)c4cc(F)cc(F)c4)cc3C2)CC1)C1CC1 (stereo not drawn)	f
CCCNC(=O)Nc1cccc(-c2nc3ncccc3o2)c1	f
O=C(Nc1ncc([N+](=O)[O-])s1)C1CC1	t
CNC(=O)C1Cc2ccccc2N1C(=O)Cc1ccccc1 (stereo not drawn)	f

Request: Would you say CN(Cc1nc2ccc(C(=O)NCC3CCCCC3)cc2[nH]1)C1CCCc2cccnc21 (stereo not drawn) shows pIC50 at minimum 6?
Result: t

Request: Let us now turn to CNc1cncc(C2CCCN2C(=O)Cc2coc3cc(C)ccc23)n1 (stereo not drawn)
Result: t

Request: Let us now turn to CCc1cc(C(=O)Nc2nccn2-c2ccccc2)cs1
Result: f

Request: Let us now turn to O=C(CC1(O)C(=O)N(Cc2ccccc2)c2ccc(Br)cc21)c1cccnc1 (stereo not drawn)
Result: f

Request: Let us now turn to FC(F)(F)c1cc(C2CCCN(Cc3c[nH]c4ccccc34)C2)nc2ncnn12 (stereo not drawn)
Result: f
